Just for reference, paper PMC9911399 is where these values come from.

Please respond with reported binding signal for every item in the list.
- systemTested: T1, RBFOX1 RRM (Homo sapiens, UniProt Q9NWB1 109-208)
- T1 sequence: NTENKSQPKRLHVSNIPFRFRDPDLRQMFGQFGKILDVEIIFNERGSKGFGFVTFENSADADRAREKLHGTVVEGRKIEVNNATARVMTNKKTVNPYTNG
- assayDetails: EMSA; HiTS-Eq, 1 nM pool, 10 min; buffer printed only for the single-RNA assays: 10 mM Tris pH 7.5, 150 mM NaCl, 3.4 mM EDTA, 0.001% NP-40, 30 C
- studyConditions: tags: His6 N-terminal (pET28a); label: 5' 32P
Whole data set: some 16,000 sequences, median “ka relative to ugcaugu” near 0.0091, cut for the highest 2% near 0.032. The full list was thinned out, with the highest values kept by preference.

# per-item lookup of binding signal; items listed below
1. UGGCAGU (DNA:RNA) RNA: GGGAGACCGGAAUUCAGAUUGUCCUGGCAGUUUAAAUCCCGUCGUAGCCACCA DNA 1: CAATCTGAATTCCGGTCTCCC DNA 2: TGGTGGCTACGACGGGATT
2. CUGGCAC (DNA:RNA) RNA: GGGAGACCGGAAUUCAGAUUGUCCCUGGCACUUAAAUCCCGUCGUAGCCACCA DNA 1: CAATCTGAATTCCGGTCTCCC DNA 2: TGGTGGCTACGACGGGATT
3. GGGGUUC (DNA:RNA) RNA: GGGAGACCGGAAUUCAGAUUGUCCGGGGUUCUUAAAUCCCGUCGUAGCCACCA DNA 1: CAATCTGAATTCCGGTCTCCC DNA 2: TGGTGGCTACGACGGGATT
4. GAUUGAC (DNA:RNA) RNA: GGGAGACCGGAAUUCAGAUUGUCCGAUUGACUUAAAUCCCGUCGUAGCCACCA DNA 1: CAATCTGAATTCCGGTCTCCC DNA 2: TGGTGGCTACGACGGGATT
5. UGGGCAC (DNA:RNA) RNA: GGGAGACCGGAAUUCAGAUUGUCCUGGGCACUUAAAUCCCGUCGUAGCCACCA DNA 1: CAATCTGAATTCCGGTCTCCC DNA 2: TGGTGGCTACGACGGGATT

0.0192 KA relative to UGCAUGU
0.0183 KA relative to UGCAUGU
0.0437 KA relative to UGCAUGU
0.0228 KA relative to UGCAUGU
0.0337 KA relative to UGCAUGU

Okay, here is my list. What is binding signal for each of these?
1. UGGUCUU (DNA:RNA) RNA: GGGAGACCGGAAUUCAGAUUGUCCUGGUCUUUUAAAUCCCGUCGUAGCCACCA DNA 1: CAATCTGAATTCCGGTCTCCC DNA 2: TGGTGGCTACGACGGGATT
2. UGGCACU (DNA:RNA) RNA: GGGAGACCGGAAUUCAGAUUGUCCUGGCACUUUAAAUCCCGUCGUAGCCACCA DNA 1: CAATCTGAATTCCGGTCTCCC DNA 2: TGGTGGCTACGACGGGATT
3. UCCGAUU (DNA:RNA) RNA: GGGAGACCGGAAUUCAGAUUGUCCUCCGAUUUUAAAUCCCGUCGUAGCCACCA DNA 1: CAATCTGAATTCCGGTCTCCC DNA 2: TGGTGGCTACGACGGGATT
4. UGGGGUC (DNA:RNA) RNA: GGGAGACCGGAAUUCAGAUUGUCCUGGGGUCUUAAAUCCCGUCGUAGCCACCA DNA 1: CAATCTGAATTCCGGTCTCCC DNA 2: TGGTGGCTACGACGGGATT

1: 0.0179 KA relative to UGCAUGU; 2: 0.0174 KA relative to UGCAUGU; 3: 0.00941 KA relative to UGCAUGU; 4: 0.0387 KA relative to UGCAUGU
